Reference source: patent US5001149A

test: Stability to UV irradiation by reversed phase HPLC; assay type: physicochemical; details: absolute ethanol, uv
ASSAY READOUT: half-life
Returns: string containing the numeric result and its unit.

MOLECULE: C/C=C(\C)C(=O)OC1CC(O)C2(C(=O)OC)COC3C2C12COC(O)(C(=O)OC)C2C(C)(C12OC1(C)C1CC2OC2OC=CC21O)C3O (centres unmarked)
half-life: 25 h

The molecule C/C=C(\C)C(=O)OC1CC(OC(C)=O)C2(C(=O)OC)COC3C2C12COC(O)(C(=O)OC)C2C(C)(C12OC1(C)C1CC2OC2OCCC21O)C3O (centres unmarked) [Compound 3, 22,23-dihydroazadirachtin] showed half-life equal to 25 h
